Activity calls are given as the source filed them.
Consider the following molecules; for each one, report its Kd.

Notebook entry, Peroxisomal acyl-coenzyme A oxidase 1 (Homo sapiens) assay: Kd of CC1(COc2ccc3c(c2)ncn3-c2ccc3cccc(N4CCC(N)CC4)c3n2)COC1 [CRENOLANIB] = ? > 30 µM (inactive)

Notebook entry, Peroxisomal acyl-coenzyme A oxidase 1 (Homo sapiens) assay: Kd of CC1(C)CNc2cc(NC(=O)c3cccnc3NCc3ccncc3)ccc21 [MOTESANIB] = ? > 30 µM (inactive)

Notebook entry, Peroxisomal acyl-coenzyme A oxidase 1 (Homo sapiens) assay: Kd of COc1cccc(Nc2ncnn3ccc(CN4CC[C@@H](N)[C@H](O)C4)c23)c1 [BMS-690514] = ? > 30 µM (inactive)

Notebook entry, Peroxisomal acyl-coenzyme A oxidase 1 (Homo sapiens) assay: Kd of CC(C)CC(=O)Nc1[nH]nc2c1CN(C(=O)C1CCN(C)CC1)C2(C)C [PHA-793887] = ? > 30 µM (inactive)

Notebook entry, Peroxisomal acyl-coenzyme A oxidase 1 (Homo sapiens) assay: Kd of S=C(NCc1ccc2c(c1)OCO2)N1CCN(c2ncnc3c2oc2ccccc23)CC1 [AMUVATINIB] = ? > 30 µM (inactive)

Notebook entry, Peroxisomal acyl-coenzyme A oxidase 1 (Homo sapiens) assay: Kd of Cc1ccc(C(=O)Nc2ccc(Oc3cc4cnn(C)c4cc3-c3cn[nH]c3)c(F)c2)c(=O)n1-c1ccc(F)cc1 [MERESTINIB] = ? > 30 µM (inactive)

Notebook entry, Peroxisomal acyl-coenzyme A oxidase 1 (Homo sapiens) assay: Kd of Cc1cc(-c2cc(OC(=O)c3ccccc3)ccc2Cl)cc2nnc(Nc3ccc(OCCN4CCCC4)cc3)nc12 [TG100-801] = ? > 30 µM (inactive)

Notebook entry, Peroxisomal acyl-coenzyme A oxidase 1 (Homo sapiens) assay: Kd of Cn1c(=O)n(-c2ccc(C(C)(C)C#N)cc2)c2c3cc(-c4cnc5ccccc5c4)ccc3ncc21 [DACTOLISIB] = ? > 30 µM (inactive)

Notebook entry, Peroxisomal acyl-coenzyme A oxidase 1 (Homo sapiens) assay: Kd of NC[C@@](O)(c1ccc(Cl)cc1)c1ccc(-c2cn[nH]c2)cc1 [AT-13148] = ? > 30 µM (inactive)

Notebook entry, Peroxisomal acyl-coenzyme A oxidase 1 (Homo sapiens) assay: Kd of COc1cc(Nc2ncc(F)c(Nc3ccc4c(n3)N(COP(=O)(O)O)C(=O)C(C)(C)O4)n2)cc(OC)c1OC [FOSTAMATINIB] = ? > 30 µM (inactive)

Notebook entry, Peroxisomal acyl-coenzyme A oxidase 1 (Homo sapiens) assay: Kd of Cc1c(Cn2c(C)nc3c(C(=O)O)cc(N4CCOCC4)cc32)cccc1C(F)(F)F [GSK-2636771] = ? > 30 µM (inactive)

Notebook entry, Peroxisomal acyl-coenzyme A oxidase 1 (Homo sapiens) assay: Kd of O[C@H]1CC[C@H](Nc2ncc3nc(Nc4c(F)cc(F)cc4F)n([C@H]4CCOC4)c3n2)CC1 [TANZISERTIB] = ? > 30 µM (inactive)

Notebook entry, Peroxisomal acyl-coenzyme A oxidase 1 (Homo sapiens) assay: Kd of O=c1[nH]c([C@@H]2CCCN2)nc2c1oc1ccc(Cl)cc12 = ? > 30 µM (inactive)

Notebook entry, Peroxisomal acyl-coenzyme A oxidase 1 (Homo sapiens) assay: Kd of COc1cc2c(N3CCN(C(=O)Nc4ccc(OC(C)C)cc4)CC3)ncnc2cc1OCCCN1CCCCC1 [TANDUTINIB] = ? > 30 µM (inactive)

Notebook entry, Peroxisomal acyl-coenzyme A oxidase 1 (Homo sapiens) assay: Kd of O=C(NC[C@H](O)CO)c1ccncc1Nc1ccc(I)cc1F [PIMASERTIB] = ? > 30 µM (inactive)

Notebook entry, Peroxisomal acyl-coenzyme A oxidase 1 (Homo sapiens) assay: Kd of COc1cc2ncnc3c2cc1OCCCCCN(C)Cc1ccc(Br)cc1N3 [JNJ-26483327] = ? > 30 µM (inactive)

Notebook entry, Peroxisomal acyl-coenzyme A oxidase 1 (Homo sapiens) assay: Kd of Cc1cc(Nc2nc(N[C@@H](C)c3ncc(F)cn3)ncc2Cl)n[nH]1 [AZD-1480] = ? > 30 µM (inactive)
